Please provide measured melting point for the entries that follow.

INPUT: Recorded melting point of COc1ccc2cc([C@H](C)C(=O)OCC(=O)N(C)CC(=O)OCCO[N+](=O)[O-])ccc2c1 [Example 20] , please.
OUTPUT: 71 to 73 °C

INPUT: I have this compound here, COc1ccc2cc([C@H](C)C(=O)OCCOC(=O)NCCO[N+](=O)[O-])ccc2c1 [Example 14] , and I need its recorded melting point.
OUTPUT: 56 to 57 °C

INPUT: Consider the compound COc1ccc2cc([C@H](C)C(=O)OCCOC(=O)C(=O)OCCCO[N+](=O)[O-])ccc2c1 [Example 40] and give its measured melting point.
OUTPUT: 55 to 58 °C

INPUT: GET /values?readout=melting point&item= CCN(CCO[N+](=O)[O-])C(=O)COC(=O)[C@@H](C)c1ccc2cc(OC)ccc2c1 [Example 18]
OUTPUT: 60 to 61 °C

INPUT: Suppose we examine the compound COc1ccc2cc([C@H](C)C(=O)OCC(=O)COC(=O)Cc3ccc(CO[N+](=O)[O-])cc3)ccc2c1 [Example 30] ; what melting point value has been reported?
OUTPUT: 92 to 95 °C

INPUT: Which melting point value is on record for COc1ccc2cc(C(C)C(=O)OCC(=O)OCCO[N+](=O)[O-])ccc2c1 (centres unmarked) [Example 23] ?
OUTPUT: 44 to 45 °C

INPUT: Value lookup for melting point; key = COc1ccc2cc([C@H](C)C(=O)OCC(=O)N(C)CC(=O)OCCCO[N+](=O)[O-])ccc2c1 [Example 21]
OUTPUT: 41 to 43 °C

INPUT: Which value of melting point has been reported for COc1ccc2cc(C(C)C(=O)OCC(=O)NCCCO[N+](=O)[O-])ccc2c1 (centres unmarked) [Example 24] in the records?
OUTPUT: 51 to 53 °C

###

Outcome measure: melting point

INPUT: Recorded melting point of COc1ccc2cc([C@H](C)C(=O)OCC(=O)N(C)CC(=O)NCCO[N+](=O)[O-])ccc2c1 , please.
OUTPUT: 79 to 81 °C

INPUT: Give the measured melting point of COc1ccc2cc([C@H](C)C(=O)NNC(=O)CCCO[N+](=O)[O-])ccc2c1 .
OUTPUT: 117 to 119 °C

INPUT: Form field: reported melting point of COc1ccc2cc([C@H](C)C(=O)OCC(=O)N(C)CCO[N+](=O)[O-])ccc2c1
OUTPUT: 80 to 81 °C

INPUT: Field request: melting point | item: COc1ccc2cc([C@H](C)C(=O)SCCCCO[N+](=O)[O-])ccc2c1
OUTPUT: 30 to 35 °C

INPUT: May I ask what melting point has been recorded for COc1ccc2cc([C@H](C)C(=O)OCCN(C)C(=O)c3ccc(CO[N+](=O)[O-])cc3)ccc2c1 ?
OUTPUT: 108 to 115 °C

INPUT: GET /values?readout=melting point&item= COc1ccc2c(c1)c(CC(=O)O[C@H]1CO[C@H]3[C@H]1OC[C@H]3O[N+](=O)[O-])c(C)n2C(=O)c1ccc(Cl)cc1
OUTPUT: 159 to 160 °C

INPUT: Can you look up the measured melting point of COc1ccc2cc([C@H](C)C(=O)OCCOc3ccc(OCCO[N+](=O)[O-])cc3)ccc2c1 for me?
OUTPUT: 67 to 69 °C

Origin of measurements: patent US7754772B2
